# degraded at 24 h, up to 10 µM per record follows
# run.description: Chemical stability in 0.1 M NH4HCO3 solution at pH 9.1 assessed as reduction in parent compound at 1 to 10 uM measured after 24 hrs by HPLC-EM/MS analysis
# Assay type: physicochemical
# recorded.conditions: dose 1-10 µM, read-out: Drug degradation

> print(dat)
                                smiles.text  measured.value
1  Cc1cc(Nc2ccc(N3CCCCC3)cc2)c2cc(Cl)ccc2n1           > 75%

We next turn to a different compound, shown below.
# compound `Cc1cc(Nc2ccc(N3CCCCC3)cc2)c2cc(Br)ccc2n1` ; its degraded at 24 h, up to 10 µM = ~50%
